Assay Procedure: Pharmacokinetics in male rats (LC-MS/MS)
Type: in vivo
Run Parameters: SD, rat, plasma, iv, 5 mg/kg
Measure: MRT last (min)

>>> observed("CC1(C)CCC2(C(=O)NO)CCC3(C)C(C(=O)C=C4C5(C)C=C(C#N)C(=O)C(C)(C)C5CCC43C)C2C1 (stereo not shown)")
50.6

----------
Assay Procedure: Pharmacokinetics in male rats (LC-MS/MS)
Assay type: in vivo
Run Parameters: SD, rat, plasma, iv, 5 mg/kg, i.v., read-out: CL_obs (converted)
Experimental: Male SD rats were intravenous injection with Cpd.51, blood and brain tissues were collected 15 min, 1 h, 4 h, 6 h, 8 h and 24 h after drug administration. Samples were measured by a Shimadzu chromatography system (Shimadzu, Kyoto, Japan) coupled with an AB Sciex triple quadrupole 4500 mass spectrometer (SCIEX Triple Quad™ 4500 LC-MS/MS, Applied Biosystems Sciex, Ontario, Canada) using Analyst 1.4.2 software. A HPLC column (ACQUITY UPLC BEH C18, 2.1 × 50 mm, 1.7 μm) were used. […]
Measure: clearance (mL/min/kg)

>>> observed("CC1(C)CCC2(C(=O)NO)CCC3(C)C(C(=O)C=C4C5(C)C=C(C#N)C(=O)C(C)(C)C5CCC43C)C2C1 (stereo not shown)")
83.5

Reference source: paper PMC13081163
